Biological target: Vhr1 (UniProt P40522)
Sequence: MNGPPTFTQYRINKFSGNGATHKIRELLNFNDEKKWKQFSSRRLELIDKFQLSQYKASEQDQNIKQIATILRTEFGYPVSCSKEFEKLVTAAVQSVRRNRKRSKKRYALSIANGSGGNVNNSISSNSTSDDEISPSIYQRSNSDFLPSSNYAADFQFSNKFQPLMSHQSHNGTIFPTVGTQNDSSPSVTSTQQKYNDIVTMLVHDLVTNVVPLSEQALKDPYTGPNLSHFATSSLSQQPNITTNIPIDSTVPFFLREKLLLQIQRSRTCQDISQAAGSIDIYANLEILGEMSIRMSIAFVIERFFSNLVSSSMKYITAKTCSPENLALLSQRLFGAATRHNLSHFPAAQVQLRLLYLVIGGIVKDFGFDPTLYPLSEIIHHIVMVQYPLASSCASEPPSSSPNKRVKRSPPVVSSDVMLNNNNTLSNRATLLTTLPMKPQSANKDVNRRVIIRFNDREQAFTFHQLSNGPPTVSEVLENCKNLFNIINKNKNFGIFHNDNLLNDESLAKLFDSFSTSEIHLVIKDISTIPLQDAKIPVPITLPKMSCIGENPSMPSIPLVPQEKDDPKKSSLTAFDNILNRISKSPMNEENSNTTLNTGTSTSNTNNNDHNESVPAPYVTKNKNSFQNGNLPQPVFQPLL
Experiment: PBM E-score (8-mer binding enrichment) (E-score (-0.5 to 0.5)); higher = stronger / more preferred TF binding
Settings: protein concentration: 200 nM; construct: GST-full length
In all, about 33,000 sequences were measured (“E-score (-0.5 to 0.5)”: median about -0.012, highest 2% from about 0.27 on). For the sample, the highest values were picked, then their nearest neighbours and some sequences at random.
I'd be grateful if you could share measured PBM E-score for these entries.
The response must contain the number and no unit.

# lookup: `CAGTCGGC` on Vhr1 (UniProt P40522), PBM E-score = 0.0497

# lookup: `GTGATTTA` on Vhr1 (UniProt P40522), PBM E-score = 0.321

# lookup: `GCAGCTCA` on Vhr1 (UniProt P40522), PBM E-score = -0.254

# lookup: `CTGGAATC` on Vhr1 (UniProt P40522), PBM E-score = 0.104

# lookup: `CCATTGGG` on Vhr1 (UniProt P40522), PBM E-score = -0.18

# lookup: `ATCGGTGA` on Vhr1 (UniProt P40522), PBM E-score = 0.181

# lookup: `ATGGAGTC` on Vhr1 (UniProt P40522), PBM E-score = 0.433

# lookup: `AGACTAAC` on Vhr1 (UniProt P40522), PBM E-score = 0.0491

# lookup: `CTGAGTCC` on Vhr1 (UniProt P40522), PBM E-score = 0.292

# lookup: `AAGTCGGC` on Vhr1 (UniProt P40522), PBM E-score = -0.177

# lookup: `CTGATTTA` on Vhr1 (UniProt P40522), PBM E-score = 0.00054

# lookup: `GAGTCGGA` on Vhr1 (UniProt P40522), PBM E-score = 0.416

# lookup: `CGTCATTC` on Vhr1 (UniProt P40522), PBM E-score = 0.177

# lookup: `CTAGGGGC` on Vhr1 (UniProt P40522), PBM E-score = -0.146

# lookup: `GATACACC` on Vhr1 (UniProt P40522), PBM E-score = 0.197

# lookup: `ATGAGTAG` on Vhr1 (UniProt P40522), PBM E-score = 0.189

# lookup: `GAGTCCGC` on Vhr1 (UniProt P40522), PBM E-score = 0.224

# lookup: `ATGGAGTG` on Vhr1 (UniProt P40522), PBM E-score = -0.0367

# lookup: `AAAATTCA` on Vhr1 (UniProt P40522), PBM E-score = -0.128

# lookup: `ATGATTTA` on Vhr1 (UniProt P40522), PBM E-score = 0.295

# lookup: `ATTGAGAC` on Vhr1 (UniProt P40522), PBM E-score = 0.18

# lookup: `TATATTCA` on Vhr1 (UniProt P40522), PBM E-score = 0.0779

# lookup: `CATCACAA` on Vhr1 (UniProt P40522), PBM E-score = 0.0244

# lookup: `AGCCATTC` on Vhr1 (UniProt P40522), PBM E-score = -0.00524

# lookup: `CCGAATGA` on Vhr1 (UniProt P40522), PBM E-score = 0.166

# lookup: `AGAGCGCC` on Vhr1 (UniProt P40522), PBM E-score = -0.134

# lookup: `AGTCATTA` on Vhr1 (UniProt P40522), PBM E-score = 0.368

# lookup: `CCACTCGA` on Vhr1 (UniProt P40522), PBM E-score = 0.0905

# lookup: `GAGTCCGA` on Vhr1 (UniProt P40522), PBM E-score = 0.308

# lookup: `GCCTTAGA` on Vhr1 (UniProt P40522), PBM E-score = -0.114

# lookup: `CCTTCTGA` on Vhr1 (UniProt P40522), PBM E-score = -0.149

# lookup: `GCAGCCCA` on Vhr1 (UniProt P40522), PBM E-score = 0.0376

# lookup: `GCGCCAAC` on Vhr1 (UniProt P40522), PBM E-score = -0.0311

# lookup: `ACGCTTAC` on Vhr1 (UniProt P40522), PBM E-score = -0.205

# lookup: `GCAGCTTA` on Vhr1 (UniProt P40522), PBM E-score = -0.0202

# lookup: `GTCTGTAA` on Vhr1 (UniProt P40522), PBM E-score = -0.0248

# lookup: `CTGAGTGC` on Vhr1 (UniProt P40522), PBM E-score = 0.0204

# lookup: `ACTCCCAA` on Vhr1 (UniProt P40522), PBM E-score = 0.112

# lookup: `ACTAAAAT` on Vhr1 (UniProt P40522), PBM E-score = -0.0643

# lookup: `ACACGGAG` on Vhr1 (UniProt P40522), PBM E-score = -0.0139

# lookup: `TAGGAAAA` on Vhr1 (UniProt P40522), PBM E-score = -0.22

# lookup: `ATGAGTTG` on Vhr1 (UniProt P40522), PBM E-score = 0.173

# lookup: `ATTGAGTG` on Vhr1 (UniProt P40522), PBM E-score = 0.202

# lookup: `CTTGAGGC` on Vhr1 (UniProt P40522), PBM E-score = -0.174

# lookup: `AAGTCGTA` on Vhr1 (UniProt P40522), PBM E-score = -0.0973

# lookup: `GAGGGCTA` on Vhr1 (UniProt P40522), PBM E-score = -0.228

# lookup: `CAGTCCGA` on Vhr1 (UniProt P40522), PBM E-score = 0.126

# lookup: `ATTGAGTC` on Vhr1 (UniProt P40522), PBM E-score = 0.387

# lookup: `AGAGTATC` on Vhr1 (UniProt P40522), PBM E-score = -0.0198

# lookup: `CAGATTAG` on Vhr1 (UniProt P40522), PBM E-score = -0.0795

# lookup: `ATGATTTC` on Vhr1 (UniProt P40522), PBM E-score = 0.249

# lookup: `ATTGAGTA` on Vhr1 (UniProt P40522), PBM E-score = 0.308

# lookup: `AGGCAAAG` on Vhr1 (UniProt P40522), PBM E-score = -0.192

# lookup: `ATTCATTC` on Vhr1 (UniProt P40522), PBM E-score = 0.165

# lookup: `ATTGCCCA` on Vhr1 (UniProt P40522), PBM E-score = -0.113

# lookup: `CAAGAGCG` on Vhr1 (UniProt P40522), PBM E-score = 0.0553

# lookup: `TAGTCGGA` on Vhr1 (UniProt P40522), PBM E-score = 0.203

# lookup: `ACCCAGCT` on Vhr1 (UniProt P40522), PBM E-score = 0.0775

# lookup: `ACATTGAC` on Vhr1 (UniProt P40522), PBM E-score = 0.0886

# lookup: `GTACAAAA` on Vhr1 (UniProt P40522), PBM E-score = -0.0126

# lookup: `ACTTCTAT` on Vhr1 (UniProt P40522), PBM E-score = -0.0176

# lookup: `AGTCATTC` on Vhr1 (UniProt P40522), PBM E-score = 0.384

# lookup: `GAGTCGTA` on Vhr1 (UniProt P40522), PBM E-score = 0.405
